# IC50 against S1P1 (Homo sapiens (Human), UniProt P21453), merged from multiple literature sources
# Sequence (P21453 whole entry): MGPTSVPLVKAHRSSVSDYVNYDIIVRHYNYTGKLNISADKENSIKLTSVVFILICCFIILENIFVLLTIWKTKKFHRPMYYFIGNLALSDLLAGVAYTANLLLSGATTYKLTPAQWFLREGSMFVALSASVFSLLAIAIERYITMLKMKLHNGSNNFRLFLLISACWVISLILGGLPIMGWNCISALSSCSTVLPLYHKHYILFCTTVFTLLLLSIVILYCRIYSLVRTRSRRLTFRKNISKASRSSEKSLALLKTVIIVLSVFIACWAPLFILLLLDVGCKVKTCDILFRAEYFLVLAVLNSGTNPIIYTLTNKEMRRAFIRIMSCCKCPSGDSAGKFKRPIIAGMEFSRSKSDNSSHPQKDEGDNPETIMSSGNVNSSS
PROPERTY_NAME: IC50 (nM)

COMPOUND: CCCc1c(-c2nc(-c3ccc(C(O)CN4CCOC(C(=O)O)C4)cc3)no2)noc1-c1ccccc1 (centres unmarked)
MEASURED_TARGET: S1P1 (Homo sapiens (Human), UniProt P21453)
UNIT_TAG: nM
QUANTITATIVE_READOUT: 4.8
//
COMPOUND: CCCc1ccc(-c2noc3c2COc2cc(CN4CC(C(=O)O)C4)ccc2-3)cc1
MEASURED_TARGET: S1P1 (Homo sapiens (Human), UniProt P21453)
UNIT_TAG: nM
QUANTITATIVE_READOUT: 1.3
//
COMPOUND: C/C(=N\OCc1ccc(C2CCCCC2)c(C(F)(F)F)c1)c1ccc(S(=O)(=O)N2CCC(N)(COP(=O)(O)O)CC2)cc1
MEASURED_TARGET: S1P1 (Homo sapiens (Human), UniProt P21453)
UNIT_TAG: nM
QUANTITATIVE_READOUT: 918

I = COc1ccc(-c2nnc(-c3ccc4c(c3)CC(N)(CO)CC4)o2)cc1C (centres unmarked)
II = O=C(O)C1CN(Cc2ccc3c(c2)CCc2c-3n[nH]c2-c2onc(-c3ccccc3)c2C(F)(F)F)C1
III = CCCCNc1c(-c2nc(-c3ccc(CN4CC(C(=O)O)C4)cc3)no2)cnn1-c1ccccc1
IV = O=C1NC(=O)C2(CN(Cc3ccc(-c4noc(COCC5(c6ccc(Cl)cc6)CCC5)n4)cc3)C2)N1
QUERY: Please rank these compounds by IC50 in descending order. A ranking is expressed here by listing the labels in the requested order.
RESULT: II, IV, I, III

====

# IC50 against S1P1 (Homo sapiens (Human), UniProt P21453), merged from multiple literature sources
PROPERTY_NAME: IC50 (nM)

MOLECULE: O=C(O)C1CN(Cc2ccc(-c3noc(-c4cnn(-c5ccccc5)c4Br)n3)cc2)C1
IC50 [nM]: 0.98
--
MOLECULE: O=C(O)c1c(-c2ccccc2)noc1-c1nc(-c2ccc(CN3CC(C(=O)O)C3)cc2)no1
IC50 [nM]: 40
--
MOLECULE: O=C(O)C1CN(Cc2ccc(-c3noc(-c4cnn(-c5ccccn5)c4C(F)(F)F)n3)cc2)C1
IC50 [nM]: 0.4

P = CCN(C)C(=O)C(O)c1ccc(-c2noc(-c3onc(-c4ccccc4)c3C(F)(F)F)n2)cc1 (racemic)
Q = O=C(O)C1CN(Cc2cc3c(cc2F)-c2noc(-c4onc(-c5ccccc5)c4C(F)(F)F)c2CC3)C1
R = O=C(O)C1CN(Cc2ccc(-c3noc(CCC4(c5ccc(F)cc5)CCCCC4)n3)cc2)C1
QUERY: List by increasing IC50. A ranking is expressed here by listing the labels in the requested order.
RESULT: R, Q, P
(R: 0.21 nM, Q: 5.6 nM, P: 350 nM)

====

# IC50 against S1P1 (Homo sapiens (Human), UniProt P21453), merged from multiple literature sources
PROPERTY_NAME: IC50 (nM)

Would you please look over these solved cases?
COMPOUND: O=C(O)C1CN(Cc2ccc(-c3noc(COCC4(c5ccc(Cl)cc5)CCC4)n3)c(F)c2)C1
IC50 [nM]: 9.72
--
COMPOUND: C[C@](N)(CO)C(=O)Nc1ccc(Oc2ccccc2)cc1
IC50 [nM]: 17.9

P = CCOC(=O)C1CCCC(N[C@@H]2COc3cc(-c4noc(-c5onc(-c6ccccc6)c5C(F)(F)F)n4)ccc3[C@@H]2O)C1 (relative stereo)
Q = Fc1cc(-c2noc(CCC3(c4ccccc4)CCCCC3)n2)ccc1C(F)(F)F
QUERY: Given the two records P and Q , choose the one whose IC50 value is lower. Answer by quoting the chosen item's label.
RESULT: Q

====

# pIC50 against S1P1 (Homo sapiens (Human), UniProt P21453), merged from multiple literature sources
pIC50: −log10 of the molar value.
PROPERTY_NAME: pIC50

I = C/C(=N\OCCCc1ccccc1)c1ccc([C@@H]2CC[C@](N)(COP(=O)(O)O)C2)cc1
II = O=C(NCc1ccccn1)C(O)c1ccc(-c2noc(-c3cnn(-c4ccccc4)c3C(F)(F)F)n2)cc1 (racemic)
QUERY: Could you please tell me which of these two has the higher pIC50: I or II ? Answer by quoting the chosen item's label.
RESULT: II
(II: 8.31, I: 7.70)

P = O=C(O)C1(CN[C@@H]2COc3cc(-c4noc(-c5onc(-c6ccccc6)c5C(F)(F)F)n4)ccc3[C@@H]2O)CCC1
Q = COc1ccc(OC)c(-c2noc(CCC3(c4ccccc4)CCCCC3)n2)c1
R = CCCc1ccc(-c2onc3c2COc2cc(CN4CC(C(=O)O)C4)ccc2-3)cc1
S = CN(C)C(=O)CCNC(=O)C(O)c1ccc(-c2noc(-c3onc(-c4ccccc4)c3C(F)(F)F)n2)cc1 (single isomer, unassigned)
QUERY: List by increasing pIC50. A ranking is expressed here by listing the labels in the requested order.
RESULT: P, Q, R, S
(P: 7.70, Q: 8.09, R: 8.92, S: 9.52)

P = O=C(O)C1CN(Cc2ccc(-c3noc(-c4cnn(-c5ccccn5)c4-c4ccccc4)n3)cc2)C1
Q = COc1cccc(CO/N=C(\C)c2ccc([C@@H]3CC[C@](N)(COP(=O)(O)O)C3)cc2)c1
QUERY: Given the two records P and Q , choose the one whose pIC50 value is lower. Answer by quoting the chosen item's label.
RESULT: Q
(Q: 6.25, P: 8.96)

====

# IC50 against S1P1 (Homo sapiens (Human)), merged from multiple literature sources
PROPERTY_NAME: IC50 (nM)

Would you please look over these solved cases?
COMPOUND: Cc1cc(-c2nc(-c3ccc4c(c3)CC(N)(CO)CC4)no2)ccc1OC(C)C (centres unmarked)
PROPERTY_NAME: IC50
QUANTITATIVE_READOUT: 0.4

COMPOUND: C[C@](N)(CO)C(=O)Nc1ccc(-c2csc(-c3ccc(-c4ccccc4)cc3)n2)cc1
PROPERTY_NAME: IC50
QUANTITATIVE_READOUT: 21

I = O=C(O)C1CN(Cc2ccc(-c3noc(-c4onc(-c5ccccc5)c4C(F)(F)F)n3)c(Cl)c2)C1
II = COc1ccc(CCOc2ccc(NC(=O)[C@@](C)(N)CO)cc2)cc1OC
III = CCCc1c(-c2nc(-c3ccc(C(O)CN4CC[C@@H]4C(=O)O)cc3)no2)noc1-c1ccccc1 (some centres unmarked)
QUERY: List by increasing IC50. A ranking is expressed here by listing the labels in the requested order.
RESULT: I, III, II

====

# pIC50 against S1P1 (Homo sapiens (Human), UniProt P21453), merged from multiple literature sources
pIC50: −log10 of the molar value.
PROPERTY_NAME: pIC50

Would you please look over these solved cases?
COMPOUND: CCc1c(-c2nc(-c3ccc(CN4CC(C(=O)O)C4)c(Br)c3)no2)noc1-c1ccccc1
MEASURED_TARGET: S1P1 (Homo sapiens (Human), UniProt P21453)
QUANTITATIVE_READOUT: 9.85
--
COMPOUND: O=C(O)C1CN(CC(O)c2ccc(-c3noc(-c4onc(-c5ccccc5)c4C(F)(F)F)n3)cc2)CCO1 (centres unmarked)
MEASURED_TARGET: S1P1 (Homo sapiens (Human), UniProt P21453)
QUANTITATIVE_READOUT: 7.51
--
COMPOUND: CCc1c(-c2nc(-c3ccc(CN4CC(C(=O)O)C4)cc3)no2)noc1-c1ccccn1
MEASURED_TARGET: S1P1 (Homo sapiens (Human), UniProt P21453)
QUANTITATIVE_READOUT: 10.29
--
COMPOUND: Cc1cc(-c2cn(-c3ccc4c(c3)CC(N)(CO)CC4)nn2)ccc1OC(C)C (centres unmarked)
MEASURED_TARGET: S1P1 (Homo sapiens (Human), UniProt P21453)
QUANTITATIVE_READOUT: 8.30
--
COMPOUND: COC(=O)c1c(-c2ccccc2)noc1-c1nc(-c2ccc(CN3CC(C(=O)O)C3)cc2)no1
MEASURED_TARGET: S1P1 (Homo sapiens (Human), UniProt P21453)
QUANTITATIVE_READOUT: 10.03
--
COMPOUND: O=C(O)[C@H]1CCCN(CC(O)c2ccc(-c3noc(-c4onc(-c5ccccc5)c4C(F)(F)F)n3)c(C(F)(F)F)c2)C1 (some centres unmarked)
MEASURED_TARGET: S1P1 (Homo sapiens (Human), UniProt P21453)
QUANTITATIVE_READOUT: 7.85
--
COMPOUND: O=C(O)C1CN(Cc2ccc(-c3noc(COCC4(c5ccc(Cl)cc5)CCC4)n3)c(Cl)c2)C1
MEASURED_TARGET: S1P1 (Homo sapiens (Human), UniProt P21453)
QUANTITATIVE_READOUT: 7.92
--
COMPOUND: COCCOc1ccc(-c2nnc(-c3ccc4c(c3)CC(N)(CO)CC4)o2)cc1C(F)(F)F (centres unmarked)
MEASURED_TARGET: S1P1 (Homo sapiens (Human), UniProt P21453)
QUANTITATIVE_READOUT: 7.99
--
COMPOUND: O=C(O)[C@H]1CCCN(Cc2ccc3c(c2)CCc2c-3noc2-c2noc(-c3ccccc3)c2C(F)(F)F)C1
MEASURED_TARGET: S1P1 (Homo sapiens (Human), UniProt P21453)
QUANTITATIVE_READOUT: 7.66
--
COMPOUND: O=C(NC1CNC1)C(O)c1ccc(-c2noc(-c3onc(-c4ccccc4)c3C(F)(F)F)n2)cc1 (single isomer, unassigned)
MEASURED_TARGET: S1P1 (Homo sapiens (Human), UniProt P21453)
QUANTITATIVE_READOUT: 8.35

P = O=C(O)C1CN(Cc2ccc(-c3noc(CCCC4(c5ccccc5)CCCCC4=O)n3)cc2)C1 (centres unmarked)
Q = C/C(=N\OCc1ccc(C2CCCCC2)c(C(F)(F)F)c1)c1ccc(C(=O)N2CCC(N)(COP(=O)(O)O)C2)cc1 (single isomer, unassigned)
QUERY: Given the two records P and Q , choose the one whose pIC50 value is lower. Answer by quoting the chosen item's label.
RESULT: Q
(Q: 7.98, P: 8.77)
